target: Coagulation factor XII (Homo sapiens); assay type: functional;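 note: activated factor XIIa alpha cleaving a fluorogenic AMC peptide substrate; inhibitor potency from loss of enzyme activity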
assay-metric: IC50

Q. Provide one value: measured IC50 of `COc1ccc(/C=C(\C#N)c2n[nH]c(Cn3cncn3)n2)cc1`
A. > 50 µM (inconclusive)

====

biological target: Short transient receptor potential channel 4 (Mus musculus, UniProt Q9QUQ5); assay: calcium entry via TRPC4 opening agents – cell-based, HEK293 TRPC4/mu-opioid, Fluo-4 calcium, dose response (AID 434937); type: functional
Sequence (Q9QUQ5 whole entry): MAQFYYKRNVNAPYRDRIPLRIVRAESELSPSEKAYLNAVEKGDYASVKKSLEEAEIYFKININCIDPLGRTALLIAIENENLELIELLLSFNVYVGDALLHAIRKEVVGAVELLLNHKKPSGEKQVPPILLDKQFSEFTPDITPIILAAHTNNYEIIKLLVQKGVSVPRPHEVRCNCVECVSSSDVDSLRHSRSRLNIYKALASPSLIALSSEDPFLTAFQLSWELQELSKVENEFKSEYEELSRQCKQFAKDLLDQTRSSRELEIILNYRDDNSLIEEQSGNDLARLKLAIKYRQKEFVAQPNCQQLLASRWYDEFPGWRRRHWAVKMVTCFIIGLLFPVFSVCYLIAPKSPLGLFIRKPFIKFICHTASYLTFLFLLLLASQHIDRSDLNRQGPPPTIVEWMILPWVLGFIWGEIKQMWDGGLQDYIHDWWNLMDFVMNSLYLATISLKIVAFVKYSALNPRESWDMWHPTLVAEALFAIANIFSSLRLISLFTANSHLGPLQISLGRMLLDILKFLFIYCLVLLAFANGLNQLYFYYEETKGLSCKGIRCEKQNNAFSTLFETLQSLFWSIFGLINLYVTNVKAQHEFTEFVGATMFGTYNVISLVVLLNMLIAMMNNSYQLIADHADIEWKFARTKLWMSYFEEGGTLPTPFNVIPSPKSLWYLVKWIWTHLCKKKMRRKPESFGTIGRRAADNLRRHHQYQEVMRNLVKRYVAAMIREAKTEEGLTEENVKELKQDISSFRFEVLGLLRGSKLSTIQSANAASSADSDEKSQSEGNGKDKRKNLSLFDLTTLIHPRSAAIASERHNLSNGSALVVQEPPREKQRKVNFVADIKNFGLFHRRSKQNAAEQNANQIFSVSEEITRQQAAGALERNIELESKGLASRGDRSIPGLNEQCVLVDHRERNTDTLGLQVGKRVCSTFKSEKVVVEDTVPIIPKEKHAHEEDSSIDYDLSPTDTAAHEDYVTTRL
The source made the active and inactive calls.
Documented EC50 across a set of compounds

Example results:
Cn1c(S)nnc1-c1cccc2ccccc12 ... 0.841 µM (active)
Cc1sc2ncnc(NCC(c3ccco3)N(C)C)c2c1C (stereo unspecified) ... 0.841 µM (active)
O=C(NCc1ccccc1)C1=C[C@H](c2ccccc2)C[C@H](OCc2ccc(CO)cc2)O1 ... 1.06 µM (active)
Cc1ccc2[nH]c3c(N4CCc5ccccc5C4)ncnc3c2c1 ... 5.96 µM (active)
CC(=O)c1c(C)nn(CC(=O)NC2CCCN(Cc3ccc(CC(C)C)cc3)C2)c1C (stereo unspecified) ... 1.19 µM (active)

Turning now to a further compound:
Q. Provide one value: measured EC50 of `COCC1CCN(Cc2cn(-c3ccccc3F)nc2-c2cc(C)sc2C)CC1`
A. 1.88 µM (active)

====

test: Luminescence Cell-Based Dose Response HTS to Identify Activators of Luciferase Translation or Activity in H4 […] Cells. [Related pubchem assays: 1829 (Project Summary), 1814 (Primary HTS)]; assay type: functional
Activity calls are given as the source filed them.
Documented EC50 across a set of compounds

Example results:
COc1ccccc1C(=O)N/N=C(\C)c1ccc(NC(=O)Cc2ccccc2)cc1 ... > 120 µM (not active)
O=C(Nc1ccc(Br)cc1)c1ccc(CSC2=NCCS2)cc1 ... 3.81 µM (active)
O=C(COC(=O)c1cccnc1O)NCCc1ccc(Cl)cc1Cl ... 0.367 µM (active)
COc1ccc2cc(C(=O)NCCc3ccccc3)[nH]c2c1 ... 48 µM (active)

Turning now to a further compound:
Q. Provide one value: measured EC50 of `COc1ccc(Cn2c(-c3ccc(Cl)cc3)c[n+]3ccccc23)cc1`
A. > 120 µM (not active)

====

Biological target: Rac GTPase-activating protein 1 (Homo sapiens)
Sequence (Q9H0H5 whole entry): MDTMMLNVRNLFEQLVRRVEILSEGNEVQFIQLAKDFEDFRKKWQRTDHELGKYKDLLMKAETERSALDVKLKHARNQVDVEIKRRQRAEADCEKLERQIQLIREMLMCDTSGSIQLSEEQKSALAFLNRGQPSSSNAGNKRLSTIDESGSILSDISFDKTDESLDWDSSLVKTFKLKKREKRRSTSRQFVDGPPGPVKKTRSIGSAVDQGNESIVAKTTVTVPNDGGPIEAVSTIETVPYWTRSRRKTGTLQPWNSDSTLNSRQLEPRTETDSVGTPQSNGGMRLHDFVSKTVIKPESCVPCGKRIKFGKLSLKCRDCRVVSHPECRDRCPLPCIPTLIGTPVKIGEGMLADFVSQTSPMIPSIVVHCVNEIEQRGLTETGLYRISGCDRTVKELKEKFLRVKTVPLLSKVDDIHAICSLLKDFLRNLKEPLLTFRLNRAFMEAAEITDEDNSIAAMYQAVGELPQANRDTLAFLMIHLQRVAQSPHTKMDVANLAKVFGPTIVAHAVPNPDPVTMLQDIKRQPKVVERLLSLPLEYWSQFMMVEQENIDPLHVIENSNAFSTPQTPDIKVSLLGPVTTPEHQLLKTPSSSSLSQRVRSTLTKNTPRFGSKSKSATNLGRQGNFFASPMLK
Assay: blockers of MgcRacGAP-driven Rac1 GTP hydrolysis – biochemical, ADP Hunter fluorescence, primary and confirmatory, confirmation (AID 624330)
Format: functional
Calls of active or inactive are those of the source.
assay-metric: IC50

Example results:
COc1cc(/C=C2\C(=O)N(C)C(=S)N2C)ccc1O ... 31.9 µM (active)
CCN(CC)c1ccc(/C=N/O)cc1 ... 20.2 µM (active)

Q. Provide one value: measured IC50 of `N#Cc1ccccc1S(=O)(=O)N1CCN(C(=O)Cc2coc3cc(O)ccc23)CC1`
A. 32.6 µM (active)

Q. Provide one value: measured IC50 of `CCN(CC)c1ccc(NC(=O)COC(=O)Cc2ccsc2)cc1`
A. 38 µM (active)

Q. Provide one value: measured IC50 of `CCN(CC)CCNc1ccc(C)c2sc3ccc(O)cc3c(=O)c12`
A. 21.8 µM (active)

Q. Provide one value: measured IC50 of `CN(C)C=O.O=C(O)c1ccccc1NS(=O)(=O)c1ccc(N/N=C/c2ccc(O)c(O)c2)c([N+](=O)[O-])c1`
A. 60.7 µM (active)

Q. Provide one value: measured IC50 of `CN(C)/C=N/C1=NN(c2cccc(C(F)(F)F)c2)CC1`
A. 38.3 µM (active)

Q. Provide one value: measured IC50 of `O=c1[nH]c2ccccc2n2c(S)nnc12`
A. 109 µM (active)

====

assay: blockers of HIV-1 envelope-mediated cell-cell fusion – cherry-pick, dose response (AID 652057); assay type: functional, cell-based
Active and inactive are the calls of the source.
assay-metric: AC50

Example results:
COc1ccc([C@@H]2[C@@H]3C(=O)N(C(C)(C)C)C(=O)[C@@H]3[C@]3(CC(C)C)C(=O)N(c4cccc(F)c4)C(=O)N23)cc1 ... < 0.26 µM (active)
C#CC(=O)N(c1ccc(OC)cc1OC)C(C(=O)NC1CCCC1)c1cccs1 (centres undefined) ... 14.8 µM (active)
CCC(C)(C)NC(=O)C(c1ccc(C)cc1)N(CC1CCCO1)C(=O)c1csnn1 (centres undefined) ... 4.81 µM (active)

Turning now to a further molecule:
Q. Provide one value: measured AC50 of `CO[C@H]1CN(C)C(=O)c2ccc(NC(=O)C3CCC3)cc2OC[C@H](C)N(CC2CCCCC2)C[C@@H]1C`
A. 0.592 µM (active)

====

molecular target: Aminopeptidase N (Plasmodium falciparum FcB1/Columbia); experiment: malaria alanyl aminopeptidase activity blockers – biochemical, fluorogenic H-Leu-NHMec substrate, 1536-well (AID 1445); parameters: species or system Plasmodium falciparum 3D7, 3D7
Sequence (O96935 whole entry): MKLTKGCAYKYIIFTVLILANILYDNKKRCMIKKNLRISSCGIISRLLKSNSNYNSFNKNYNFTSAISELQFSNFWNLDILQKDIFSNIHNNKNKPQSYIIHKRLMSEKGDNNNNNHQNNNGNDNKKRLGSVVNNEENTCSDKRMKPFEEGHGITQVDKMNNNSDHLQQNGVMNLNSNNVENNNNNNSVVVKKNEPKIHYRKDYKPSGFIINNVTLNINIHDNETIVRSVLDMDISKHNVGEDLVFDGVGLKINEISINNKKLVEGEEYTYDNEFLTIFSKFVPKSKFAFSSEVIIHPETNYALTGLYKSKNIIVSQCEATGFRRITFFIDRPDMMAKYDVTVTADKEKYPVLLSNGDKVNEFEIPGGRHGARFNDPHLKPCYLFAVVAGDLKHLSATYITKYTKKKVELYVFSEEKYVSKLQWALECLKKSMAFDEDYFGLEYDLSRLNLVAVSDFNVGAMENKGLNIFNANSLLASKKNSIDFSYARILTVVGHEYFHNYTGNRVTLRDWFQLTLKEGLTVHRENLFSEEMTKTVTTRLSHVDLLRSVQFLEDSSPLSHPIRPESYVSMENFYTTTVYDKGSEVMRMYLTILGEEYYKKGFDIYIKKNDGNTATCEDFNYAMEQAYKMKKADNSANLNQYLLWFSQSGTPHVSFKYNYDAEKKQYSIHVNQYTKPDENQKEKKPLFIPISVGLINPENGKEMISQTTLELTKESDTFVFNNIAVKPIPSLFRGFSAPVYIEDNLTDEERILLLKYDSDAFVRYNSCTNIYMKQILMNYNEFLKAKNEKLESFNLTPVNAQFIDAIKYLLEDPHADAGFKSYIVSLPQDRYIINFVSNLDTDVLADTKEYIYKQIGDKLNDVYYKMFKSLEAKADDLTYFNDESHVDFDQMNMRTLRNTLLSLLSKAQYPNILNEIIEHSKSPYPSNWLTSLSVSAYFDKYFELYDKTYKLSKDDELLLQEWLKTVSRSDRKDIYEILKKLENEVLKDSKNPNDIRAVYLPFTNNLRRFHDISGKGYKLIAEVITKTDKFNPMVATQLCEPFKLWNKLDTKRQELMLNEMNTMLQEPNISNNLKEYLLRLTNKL
The source made the active and inactive calls.
assay-metric: IC50

Example results:
Cc1oc2cc([N+](=O)[O-])c(O)c([N+](=O)[O-])c2c1C(=O)c1ccc(Br)cc1 ... 77 µM (active)
O=C(N/N=C/c1ccccc1C(=O)O)c1cc(-c2ccc3c4c(cccc24)CC3)[nH]n1 ... 85.2 µM (active)

Q. Provide one value: measured IC50 of `O=C1c2cccc3cccc(c23)C(=O)N1CCCc1nnc(S)n1-c1ccccc1`
A. 17.9 µM (active)

Q. Provide one value: measured IC50 of `COc1cc(/C=C2\SC(c3ccccc3)=NC2=O)cc(Cl)c1O`
A. 20 µM (active)

Q. Provide one value: measured IC50 of `CCCCN(CC)Cc1c(O)ccc2c3c(c(=O)oc12)CCC3`
A. 57.7 µM (active)

Q. Provide one value: measured IC50 of Cc1ccsc1C(C(=O)NC1CCCCC1)N(C(=O)c1csnn1)C1CC1 (configuration not stated)
A. 87.7 µM (active)

Q. Provide one value: measured IC50 of `Nc1cccc2[nH]c(C(F)(F)F)nc12`
A. 80.8 µM (active)

====

Documented EC50 across a set of molecules
assay: luciferase reporter signal suppression in cells – H4 neuroglioma cells, luminescence, dose response (AID 1990); format: functional, cell-based
Calls of active or inactive are those of the source.

Cc1cccc(N/N=C(\C(N)=O)C2=NC(C)(C)Cc3ccccc32)c1 ... 3.43 µM (active)
COc1ccc(OC)c(C(=O)N2CCC(n3nccc3NC(=O)CC(C)C)CC2)c1 ... > 120 µM (not active)
CCN(Cc1ccccc1)S(=O)(=O)c1ccc(C(=O)Nc2nnc(C3CC3)o2)cc1 ... > 120 µM (not active)

Turning now to a further molecule:
Q. Provide one value: measured EC50 of CC(C)n1cc(CN2CCCC(C(=O)Nc3cccc(-c4cc5ccccc5[nH]4)c3)C2)cn1 (centres undefined)
A. 14.5 µM (active)

====

target: Cytochrome P450 2C19 (Homo sapiens, UniProt P33261); experiment: Cytochrome panel assay with activity outcomes. Panel member name: p450-cyp2c19 Compounds with AC50 equal or less than 10 uM are considered active; assay type: functional; settings: read-out: AC50
Sequence (P33261 whole entry): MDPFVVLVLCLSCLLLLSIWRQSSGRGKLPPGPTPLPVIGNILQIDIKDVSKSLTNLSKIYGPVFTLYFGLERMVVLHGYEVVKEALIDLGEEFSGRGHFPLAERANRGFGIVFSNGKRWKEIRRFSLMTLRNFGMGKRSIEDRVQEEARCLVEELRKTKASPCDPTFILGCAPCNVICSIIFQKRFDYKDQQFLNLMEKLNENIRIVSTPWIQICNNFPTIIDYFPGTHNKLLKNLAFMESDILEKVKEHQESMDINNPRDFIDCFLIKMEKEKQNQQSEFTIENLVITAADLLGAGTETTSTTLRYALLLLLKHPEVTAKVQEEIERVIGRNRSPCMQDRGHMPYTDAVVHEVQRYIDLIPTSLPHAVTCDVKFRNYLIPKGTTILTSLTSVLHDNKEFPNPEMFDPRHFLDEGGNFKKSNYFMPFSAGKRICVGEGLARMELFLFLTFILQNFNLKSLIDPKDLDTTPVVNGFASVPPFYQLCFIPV
assay-metric: AC50

N#Cc1nc(-c2ccc(F)cc2)oc1N1CCCC1 ... 14.1 µM (inconclusive)
COC(=O)C(C)(C(=O)OC)c1ccc([N+](=O)[O-])cn1 ... 39.8 µM (inconclusive)
Cn1cccc1C(=O)N1CCC2(CCCN(C(c3ccccc3)c3ccccc3)C2)CC1 ... 39.8 µM (inconclusive)
c1cc(CN2CCCC3(CCNCC3)C2)ccn1 ... 25.1 µM (inconclusive)
CCOC(=O)c1c(O)nc(O)c(CC)c1C ... 2.51 µM (inconclusive)

Turning now to a further compound:
Q. GET AC50 where system = Cytochrome P450 2C19 (Homo sapiens, UniProt P33261) and item = `CC(=O)Nc1cc(C(F)(F)F)ccc1Oc1cccc(Br)c1`
A. 0.316 µM (inconclusive)
